- target or test system: human tyrosinase (Homo sapiens)
- Construct: endogenous in cells; host or cells: SKMEL 188 human melanoma cell line (lysate)
- Sequence (P14679 19-529): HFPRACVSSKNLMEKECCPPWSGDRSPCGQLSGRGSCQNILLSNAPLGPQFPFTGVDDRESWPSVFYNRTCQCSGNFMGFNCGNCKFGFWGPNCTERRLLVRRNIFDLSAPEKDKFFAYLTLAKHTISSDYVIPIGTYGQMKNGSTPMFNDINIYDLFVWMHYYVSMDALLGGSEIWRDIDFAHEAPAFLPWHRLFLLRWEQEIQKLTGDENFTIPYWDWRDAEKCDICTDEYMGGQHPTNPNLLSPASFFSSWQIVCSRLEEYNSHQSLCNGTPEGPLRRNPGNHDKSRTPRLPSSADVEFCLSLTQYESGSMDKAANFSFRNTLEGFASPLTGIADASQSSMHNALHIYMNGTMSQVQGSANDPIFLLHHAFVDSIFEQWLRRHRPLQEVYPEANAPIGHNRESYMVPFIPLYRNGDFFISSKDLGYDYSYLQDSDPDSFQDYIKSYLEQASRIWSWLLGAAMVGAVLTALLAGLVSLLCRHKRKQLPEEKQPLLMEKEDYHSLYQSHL
- assay procedure: Tyrosinase (DOPA Oxidase) Assay Using Cell Lysate
- Format: biochemical
- experimental context: SKMEL 188 human melanoma cell lysates, L-DOPA 100 μg/ml, incubated 8 hrs, read at 405 nm

entry smiles	target or test system	IC50
Cc1ccc(S(=O)(=O)N[C@H]2CC[C@H](c3ccc(O)cc3O)CC2)cc1	human tyrosinase (Homo sapiens)	~4 µM
